tested.on: Cyclin-dependent kinase 5 (Homo sapiens) (UniProt Q00535)
Sequence (Q00535 whole entry, looked up): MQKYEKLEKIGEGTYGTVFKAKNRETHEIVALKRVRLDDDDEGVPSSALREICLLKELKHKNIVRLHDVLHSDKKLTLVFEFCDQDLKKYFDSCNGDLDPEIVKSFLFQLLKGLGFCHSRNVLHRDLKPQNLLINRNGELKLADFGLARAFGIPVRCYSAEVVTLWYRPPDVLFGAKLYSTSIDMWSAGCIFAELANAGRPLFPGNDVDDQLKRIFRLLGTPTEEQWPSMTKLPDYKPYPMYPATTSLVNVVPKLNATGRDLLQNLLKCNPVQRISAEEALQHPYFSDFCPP
test.conditions: at 1 µM
Label rule met when inhibition >= 6%; otherwise rule not met.

Consider the following illustrative entries.
CCn1c(-c2nonc2N)nc2c(C#CCN)ncc(OCCCN)c21 ... rule not met
COc1cc(C=NNc2ncnc3c2cnn3Cc2ccccc2)ccc1O ... rule met
CCn1c(-c2nonc2N)nc2c(C#CC(C)(C)O)ncc(OCC3CCNCC3)c21 ... rule not met
COc1cccc(-n2ncc3c(N/N=C/c4ccncc4)ncnc32)c1 ... rule met

Next item in the queue.
input: API: above_or_equal(metric=inhibition, cutoff=6%) for item Cc1cc(-c2ccco2)cc(C)c1/C=C/c1cncc(-c2nn[nH]n2)c1
output: rule not met

====

As shown below, each of these compounds has a reported inhibition value.
tested.on: Tyrosine-protein kinase Lck (Homo sapiens)
test.conditions: at 0.1 µM
Numeric answer plus unit only.

Field: example entries. Status: answers known.
NS(=O)(=O)c1ccc(-c2ccc3c(NC(=O)C4CC4)n[nH]c3c2)cc1 ... 2.8%
COc1cccc(COc2cc(-n3cnc4ccccc43)sc2C(N)=O)c1 ... 0.12%
Cc1cc(-c2ccco2)cc(C)c1/C=C/c1cncc(-c2nn[nH]n2)c1 ... 1.77%

input: Missing value: inhibition, Tyrosine-protein kinase Lck (Homo sapiens), entry CCn1c(-c2nonc2N)nc2c(C#CC(C)(C)O)nc(O[C@@H](CN)c3ccccc3)cc21 . Fill in?
output: 0.41%

input: Missing value: inhibition, Tyrosine-protein kinase Lck (Homo sapiens), entry COc1cc2c(cc1Nc1nc(Nc3ccsc3C(N)=O)c3cc[nH]c3n1)N(C(=O)CN(C)C)CCC2 . Fill in?
output: 2.58%

====

As shown below, each of these compounds has a reported inhibition value.
tested.on: Cyclin-dependent kinase 6 (Homo sapiens) (UniProt Q00534)
Sequence (Q00534 whole entry): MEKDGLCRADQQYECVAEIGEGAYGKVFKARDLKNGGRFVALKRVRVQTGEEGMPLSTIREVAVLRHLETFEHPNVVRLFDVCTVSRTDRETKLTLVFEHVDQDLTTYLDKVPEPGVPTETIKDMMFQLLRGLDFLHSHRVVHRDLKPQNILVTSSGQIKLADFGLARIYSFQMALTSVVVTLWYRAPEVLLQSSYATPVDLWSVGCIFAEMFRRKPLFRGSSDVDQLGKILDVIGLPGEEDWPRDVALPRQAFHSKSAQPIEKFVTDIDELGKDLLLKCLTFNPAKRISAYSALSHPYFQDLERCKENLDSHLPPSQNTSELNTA
test.conditions: at 1 µM
# output: bare number, implied unit %

input: Missing value: inhibition, Cyclin-dependent kinase 6 (Homo sapiens) (UniProt Q00534), entry NC(=O)c1sc(-n2cnc3cc(C(F)(F)F)ccc32)cc1OCc1ccccc1Br . Fill in?
output: -1.42

input: Missing value: inhibition, Cyclin-dependent kinase 6 (Homo sapiens) (UniProt Q00534), entry Nc1nonc1-c1nc2cnccc2n1C1CCCCC1 . Fill in?
output: 1.64

input: Missing value: inhibition, Cyclin-dependent kinase 6 (Homo sapiens) (UniProt Q00534), entry Cc1cc(-c2ccco2)cc(C)c1/C=C/c1cncc(-c2nn[nH]n2)c1 . Fill in?
output: -0.96

input: Missing value: inhibition, Cyclin-dependent kinase 6 (Homo sapiens) (UniProt Q00534), entry NS(=O)(=O)c1ccc(N/C=C2\C(=O)Nc3ccc4ncsc4c32)cc1 . Fill in?
output: 69

input: Missing value: inhibition, Cyclin-dependent kinase 6 (Homo sapiens) (UniProt Q00534), entry COc1cc2c(cc1Nc1nc(Nc3ccsc3C(N)=O)c3cc[nH]c3n1)N(C(=O)CN(C)C)CCC2 . Fill in?
output: 6.19

input: Missing value: inhibition, Cyclin-dependent kinase 6 (Homo sapiens) (UniProt Q00534), entry COc1cccc(-n2ncc3c(N/N=C/c4ccncc4)ncnc32)c1 . Fill in?
output: 51.1

input: Missing value: inhibition, Cyclin-dependent kinase 6 (Homo sapiens) (UniProt Q00534), entry NS(=O)(=O)c1ccc(-c2ccc3c(NC(=O)C4CC4)n[nH]c3c2)cc1 . Fill in?
output: 46.3

input: Missing value: inhibition, Cyclin-dependent kinase 6 (Homo sapiens) (UniProt Q00534), entry Fc1ccc(-c2ncn(C3CCNCC3)c2-c2ccnc(Oc3ccccc3)n2)cc1 . Fill in?
output: -4.11

input: Missing value: inhibition, Cyclin-dependent kinase 6 (Homo sapiens) (UniProt Q00534), entry COc1cccc(COc2cc(-n3cnc4ccccc43)sc2C(N)=O)c1 . Fill in?
output: -1

====

tested.on: Ephrin type-A receptor 3 (Homo sapiens)
Sequence (whole entry): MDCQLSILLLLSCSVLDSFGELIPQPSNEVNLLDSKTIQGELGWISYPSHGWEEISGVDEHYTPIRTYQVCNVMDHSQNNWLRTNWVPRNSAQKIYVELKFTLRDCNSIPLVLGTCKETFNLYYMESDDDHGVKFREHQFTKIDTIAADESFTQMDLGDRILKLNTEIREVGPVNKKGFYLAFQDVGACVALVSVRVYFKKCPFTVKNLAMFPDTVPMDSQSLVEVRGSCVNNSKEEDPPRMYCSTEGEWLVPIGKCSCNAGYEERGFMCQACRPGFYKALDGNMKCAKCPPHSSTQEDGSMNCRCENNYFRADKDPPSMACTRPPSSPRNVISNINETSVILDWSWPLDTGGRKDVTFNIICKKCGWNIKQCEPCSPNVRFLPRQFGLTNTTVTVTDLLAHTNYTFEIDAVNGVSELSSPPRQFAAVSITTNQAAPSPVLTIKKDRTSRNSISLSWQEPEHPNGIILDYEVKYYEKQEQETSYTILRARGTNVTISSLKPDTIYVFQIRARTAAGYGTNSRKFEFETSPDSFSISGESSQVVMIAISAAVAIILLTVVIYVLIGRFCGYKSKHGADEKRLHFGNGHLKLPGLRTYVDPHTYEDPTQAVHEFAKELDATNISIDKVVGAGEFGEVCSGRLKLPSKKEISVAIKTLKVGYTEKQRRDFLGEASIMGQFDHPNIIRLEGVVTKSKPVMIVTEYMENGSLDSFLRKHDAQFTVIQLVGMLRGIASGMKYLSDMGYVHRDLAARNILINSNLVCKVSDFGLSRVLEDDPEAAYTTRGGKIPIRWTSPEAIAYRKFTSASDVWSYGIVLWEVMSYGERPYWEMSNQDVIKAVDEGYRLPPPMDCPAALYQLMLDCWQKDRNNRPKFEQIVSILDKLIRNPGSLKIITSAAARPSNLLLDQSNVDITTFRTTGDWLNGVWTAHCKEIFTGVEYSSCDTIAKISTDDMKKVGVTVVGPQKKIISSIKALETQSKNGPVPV
test.conditions: at 1 µM
As shown below, each of these compounds has a reported inhibition value.
# output: bare number, implied unit %

Field: example entries. Status: answers known.
CCn1c(-c2nonc2N)nc2c(C#CC(C)(C)O)ncc(OC[C@@H]3CCCN3)c21 ... -1.12
CCn1c(-c2nonc2N)nc2c(C#CC(C)(C)O)nc(O[C@@H](CN)c3ccccc3)cc21 ... -0.7
NS(=O)(=O)c1ccc(-c2ccc3c(NC(=O)C4CC4)n[nH]c3c2)cc1 ... 2.31

input: Return reported inhibition; argument: COc1cccc(COc2cc(-n3cnc4ccccc43)sc2C(N)=O)c1
output: -0.49

input: Return reported inhibition; argument: CCn1c(-c2nonc2N)nc2c(C#CCN)ncc(OCCCN)c21
output: -1

input: Return reported inhibition; argument: Cc1cc(-c2ccco2)cc(C)c1/C=C/c1cncc(-c2nn[nH]n2)c1
output: 0.86

====

tested.on: Ribosomal protein S6 kinase alpha-2 (Homo sapiens)
test.conditions: at 0.1 µM
experimental.endpoint: inhibition (%)
# output: bare number, implied unit %

NS(=O)(=O)c1ccc(-c2ccc3c(NC(=O)C4CC4)n[nH]c3c2)cc1 ... 0.45
CCn1c(-c2nonc2N)nc2c(C#CC(C)(C)O)nc(O[C@@H](CN)c3ccccc3)cc21 ... 15.4
Fc1ccc(-c2ncn(C3CCNCC3)c2-c2ccnc(Oc3ccccc3)n2)cc1 ... 1.35
Cc1cc(-c2ccco2)cc(C)c1/C=C/c1cncc(-c2nn[nH]n2)c1 ... 1.44

input: Return reported inhibition; argument: COc1cccc(COc2cc(-n3cnc4ccccc43)sc2C(N)=O)c1
output: -0.15

input: Return reported inhibition; argument: CCn1c(-c2nonc2N)nc2c(C#CC(C)(C)O)ncc(OC[C@@H]3CCCN3)c21
output: 2.02

input: Return reported inhibition; argument: COc1cc2c(cc1Nc1nc(Nc3ccsc3C(N)=O)c3cc[nH]c3n1)N(C(=O)CN(C)C)CCC2
output: 0.29

input: Return reported inhibition; argument: Nc1nonc1-c1nc2cnccc2n1C1CCCCC1
output: 70

====

tested.on: Phosphatidylinositol 4-kinase beta (Homo sapiens) (UniProt Q9UBF8)
Sequence (Q9UBF8 2-816 limits assumed): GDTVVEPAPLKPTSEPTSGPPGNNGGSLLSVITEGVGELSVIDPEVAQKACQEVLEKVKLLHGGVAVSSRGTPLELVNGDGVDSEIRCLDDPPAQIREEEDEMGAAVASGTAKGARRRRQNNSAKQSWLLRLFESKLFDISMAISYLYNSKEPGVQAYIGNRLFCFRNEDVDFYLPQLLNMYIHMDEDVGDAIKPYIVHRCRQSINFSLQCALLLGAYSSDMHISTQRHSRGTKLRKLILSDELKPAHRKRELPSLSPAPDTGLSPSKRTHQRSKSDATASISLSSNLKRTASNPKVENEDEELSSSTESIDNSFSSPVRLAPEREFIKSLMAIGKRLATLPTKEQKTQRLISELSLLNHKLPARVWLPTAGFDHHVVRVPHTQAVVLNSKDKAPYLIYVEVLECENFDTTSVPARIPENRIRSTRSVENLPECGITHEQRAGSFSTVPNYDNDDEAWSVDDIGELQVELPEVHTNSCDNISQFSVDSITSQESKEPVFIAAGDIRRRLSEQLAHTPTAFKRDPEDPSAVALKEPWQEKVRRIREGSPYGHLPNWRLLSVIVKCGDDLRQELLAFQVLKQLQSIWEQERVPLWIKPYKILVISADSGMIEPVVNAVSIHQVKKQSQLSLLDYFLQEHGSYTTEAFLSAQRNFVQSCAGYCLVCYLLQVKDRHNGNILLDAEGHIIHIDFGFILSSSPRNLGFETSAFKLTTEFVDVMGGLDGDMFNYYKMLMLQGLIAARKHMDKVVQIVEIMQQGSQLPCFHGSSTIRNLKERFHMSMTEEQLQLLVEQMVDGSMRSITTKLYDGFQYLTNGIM
test.conditions: at 1 µM
experimental.endpoint: inhibition (%)
# output: bare number, implied unit %

input: Return reported inhibition; argument: CCn1c(-c2nonc2N)nc2c(C#CC(C)(C)O)ncc(OCC3CCNCC3)c21
output: -3.56

input: Return reported inhibition; argument: Nc1nonc1-c1nc2cnccc2n1C1CCCCC1
output: -2.26

input: Return reported inhibition; argument: NS(=O)(=O)c1ccc(-c2ccc3c(NC(=O)C4CC4)n[nH]c3c2)cc1
output: -1.58

input: Return reported inhibition; argument: CCn1c(-c2nonc2N)nc2c(C#CC(C)(C)O)ncc(OC[C@@H]3CCCN3)c21
output: 1.54

====

Test system: Epidermal growth factor receptor (Homo sapiens), P00533 [L858R,T790M]
Sequence (P00533 whole entry T790M/L858R, looked up): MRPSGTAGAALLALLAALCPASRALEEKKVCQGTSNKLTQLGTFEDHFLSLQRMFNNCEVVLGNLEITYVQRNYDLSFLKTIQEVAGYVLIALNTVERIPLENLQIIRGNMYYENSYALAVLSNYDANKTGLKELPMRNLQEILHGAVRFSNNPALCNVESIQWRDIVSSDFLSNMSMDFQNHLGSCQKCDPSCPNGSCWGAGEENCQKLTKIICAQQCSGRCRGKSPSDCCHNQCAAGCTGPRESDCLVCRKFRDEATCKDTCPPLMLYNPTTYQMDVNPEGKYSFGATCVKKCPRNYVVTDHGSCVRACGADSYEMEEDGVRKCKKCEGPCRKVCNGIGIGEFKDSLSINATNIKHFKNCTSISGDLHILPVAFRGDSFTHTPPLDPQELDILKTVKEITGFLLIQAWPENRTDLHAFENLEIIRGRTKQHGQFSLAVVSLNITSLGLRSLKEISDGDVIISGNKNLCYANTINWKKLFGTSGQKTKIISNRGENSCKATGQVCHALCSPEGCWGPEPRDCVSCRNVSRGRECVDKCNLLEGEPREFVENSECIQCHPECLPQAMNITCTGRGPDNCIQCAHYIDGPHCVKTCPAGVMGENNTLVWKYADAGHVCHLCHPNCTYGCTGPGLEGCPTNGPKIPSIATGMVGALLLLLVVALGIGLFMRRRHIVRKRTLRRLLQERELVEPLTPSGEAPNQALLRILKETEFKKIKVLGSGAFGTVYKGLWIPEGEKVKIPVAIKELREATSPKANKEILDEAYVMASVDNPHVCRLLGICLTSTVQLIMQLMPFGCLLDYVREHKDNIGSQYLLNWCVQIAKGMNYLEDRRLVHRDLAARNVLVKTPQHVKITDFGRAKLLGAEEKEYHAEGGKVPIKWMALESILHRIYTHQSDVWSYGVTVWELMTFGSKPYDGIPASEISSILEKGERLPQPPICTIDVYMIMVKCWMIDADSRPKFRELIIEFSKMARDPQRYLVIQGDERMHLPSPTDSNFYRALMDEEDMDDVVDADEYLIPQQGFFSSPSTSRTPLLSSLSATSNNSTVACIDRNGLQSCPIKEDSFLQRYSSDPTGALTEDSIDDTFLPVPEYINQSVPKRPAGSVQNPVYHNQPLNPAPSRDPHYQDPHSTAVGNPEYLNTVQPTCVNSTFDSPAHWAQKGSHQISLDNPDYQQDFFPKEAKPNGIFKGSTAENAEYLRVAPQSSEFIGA
test.conditions: at 1 µM
experimental.endpoint: inhibition (%)
# output: bare number, implied unit %

Field: example entries. Status: answers known.
CCn1c(-c2nonc2N)nc2c(C#CC(C)(C)O)nc(O[C@@H](CN)c3ccccc3)cc21 ... -1.45
CCn1c(-c2nonc2N)nc2c(C#CC(C)(C)O)ncc(OC[C@@H]3CCCN3)c21 ... -0.19
Fc1ccc(-c2ncn(C3CCNCC3)c2-c2ccnc(Oc3ccccc3)n2)cc1 ... 0.47
COc1cccc(COc2cc(-n3cnc4ccccc43)sc2C(N)=O)c1 ... -1.62
Cc1cc(-c2ccco2)cc(C)c1/C=C/c1cncc(-c2nn[nH]n2)c1 ... 0.17

input: Return reported inhibition; argument: COc1cc2c(cc1Nc1nc(Nc3ccsc3C(N)=O)c3cc[nH]c3n1)N(C(=O)CN(C)C)CCC2
output: 77.5

input: Return reported inhibition; argument: COc1cc(C=NNc2ncnc3c2cnn3Cc2ccccc2)ccc1O
output: -0.48

input: Return reported inhibition; argument: NC(=O)c1sc(-n2cnc3cc(C(F)(F)F)ccc32)cc1OCc1ccccc1Br
output: -0.24

input: Return reported inhibition; argument: CCn1c(-c2nonc2N)nc2c(C#CCN)ncc(OCCCN)c21
output: 5.28

input: Return reported inhibition; argument: CCn1c(-c2nonc2N)nc2c(C#CC(C)(C)O)ncc(OCC3CCNCC3)c21
output: 3.17
